All values here come from patent US20250222125A1.

target: human FGFR2b (Homo sapiens, UniProt P21802); experiment: SPR affinity determination, human FGFR2b (Example 9); type: binding; settings: kd/ka
Sequence (P21802 22-822 isoform P21802-3 limits assumed): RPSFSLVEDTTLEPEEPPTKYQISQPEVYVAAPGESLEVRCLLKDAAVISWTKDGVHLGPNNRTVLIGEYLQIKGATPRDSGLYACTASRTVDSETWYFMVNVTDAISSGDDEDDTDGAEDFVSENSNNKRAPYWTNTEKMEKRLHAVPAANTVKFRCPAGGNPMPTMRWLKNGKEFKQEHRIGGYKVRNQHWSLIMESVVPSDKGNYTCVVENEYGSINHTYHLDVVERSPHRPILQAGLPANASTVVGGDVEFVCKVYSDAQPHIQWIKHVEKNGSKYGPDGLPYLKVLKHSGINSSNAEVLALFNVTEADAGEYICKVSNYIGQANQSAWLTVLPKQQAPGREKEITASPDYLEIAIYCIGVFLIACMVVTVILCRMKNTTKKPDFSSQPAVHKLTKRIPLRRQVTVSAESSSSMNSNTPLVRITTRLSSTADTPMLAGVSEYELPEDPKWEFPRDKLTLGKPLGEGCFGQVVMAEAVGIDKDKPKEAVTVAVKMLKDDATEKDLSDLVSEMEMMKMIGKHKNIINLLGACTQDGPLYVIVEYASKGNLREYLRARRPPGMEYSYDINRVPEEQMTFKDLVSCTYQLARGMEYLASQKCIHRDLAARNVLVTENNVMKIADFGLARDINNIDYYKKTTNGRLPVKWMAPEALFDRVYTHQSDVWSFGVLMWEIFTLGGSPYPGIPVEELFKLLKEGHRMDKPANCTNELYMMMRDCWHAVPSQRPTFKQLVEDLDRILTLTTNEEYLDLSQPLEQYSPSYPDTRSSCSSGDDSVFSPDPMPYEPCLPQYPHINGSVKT
PROPERTY_LABEL: Kd (nM)
Numbers only; they are read as nM.

Which value of Kd has been reported for BGAm1371: parental murine anti-FGFR2b antibody (parental mouse clone); VH SEQ ID NO: 32, VL SEQ ID NO: 34 (antibody, V domains shown, Synthetic: VH AA; Synthetic: VL AA) VH: QVQLKQSGAELVKPGASVKLSCTASGFNIKDTYIHWVKQRPEQGLEWIGRIDPANGNTMFASEFQGKATITAYTSSNTAYMQLSSLTSGDTAVYYCARSKIHYDYDEGFAYWGQGTLVTVSS VL: NIVLTQSPPSLAVSLGQRATVSCRASESVDDYGYSFLHWYQQKPGQPPKLLIYRASNLESGIPARFSGSGSRTDFTLTINPVETDDVATYYCQQSNQNPRTFGGGTKLEIK in the records?
16.3

Requested read-out: Kd. Entry: BGAh9239: humanized anti-FGFR2b IgG1 antibody from murine BGAm1823; VH SEQ ID NO: 9, VL SEQ ID NO: 10 (antibody, V domains shown, Synthetic: VH AA; Synthetic: VL AA) VH: QVQLVQSGAEVKKPGSSVKVSCKASGYTFSIYWLNWVRQAPGQGLEWMGQIYPENADTNYSGKFKGRVTITADKSTSTAYMELSSLRSEDTAVYFCARGGFDYWGQGTLVTVSS VL: DIQMTQSPSSLSASVGDRVTITCRASENIYSNLAWYQQKPGKAPKLLIYTATNLAEGVPSRFSGSGSGTDFTLTISSLQPEDFATYYCQHFYGILYTFGQGTRLEIK
37.3

Consider the molecule shown here: BGAm1823: parental murine anti-FGFR2b antibody; VH SEQ ID NO: 28, VL SEQ ID NO: 30 (antibody, V domains shown, Synthetic: VH AA; Synthetic: VL AA) VH: EVQLQQSGAELVKPGASVKISCKASGYAFSIYWMNWVKQRPGKGLEWIGQIYPENGDTNYNGKFKGKATLTADKSSSTAYMHLSSLTSEDSAVYFCARGGFDYWGQGTTLTVSS VL: NIVMTQSPASLSASVGETVTITCRASENIYSNLAWYQQKQGKSPQLLVYTATNLADGVPSRFSGSGSGTQFSLKINSLQPEDFGSYYCQHFYGILYTFGSGTRLEIK What is its recorded Kd?
24.2
